- system_name: PSMA (Homo sapiens, UniProt Q04609)
- Construct: endogenous in cells
- Sequence (Q04609 whole entry): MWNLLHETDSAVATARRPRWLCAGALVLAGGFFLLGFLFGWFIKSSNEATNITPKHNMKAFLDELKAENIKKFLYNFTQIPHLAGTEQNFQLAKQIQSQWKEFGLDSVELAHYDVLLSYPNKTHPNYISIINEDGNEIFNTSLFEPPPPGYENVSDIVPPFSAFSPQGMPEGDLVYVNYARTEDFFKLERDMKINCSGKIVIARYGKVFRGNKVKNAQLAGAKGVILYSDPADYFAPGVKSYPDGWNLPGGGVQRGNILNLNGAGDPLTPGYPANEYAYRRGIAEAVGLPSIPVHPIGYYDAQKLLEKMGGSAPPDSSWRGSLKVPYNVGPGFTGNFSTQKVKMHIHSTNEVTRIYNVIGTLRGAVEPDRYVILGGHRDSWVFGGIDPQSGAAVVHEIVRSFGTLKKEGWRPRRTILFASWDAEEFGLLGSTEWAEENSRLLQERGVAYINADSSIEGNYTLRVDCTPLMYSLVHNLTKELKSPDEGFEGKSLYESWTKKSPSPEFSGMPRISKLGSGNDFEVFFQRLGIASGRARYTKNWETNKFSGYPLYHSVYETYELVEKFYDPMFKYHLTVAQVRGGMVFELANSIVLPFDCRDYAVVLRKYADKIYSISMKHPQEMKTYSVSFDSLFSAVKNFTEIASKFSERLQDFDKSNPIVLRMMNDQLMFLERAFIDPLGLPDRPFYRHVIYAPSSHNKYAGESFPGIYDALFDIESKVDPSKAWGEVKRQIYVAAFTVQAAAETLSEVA
- measurement_notes: In vitro PSMA competition binding assay ([^18F]DCFPyL displacement on LNCaP cells)
- stated_conditions: radioligand [^18F]DCFPyL, n = 3
measurement_kind: IC50

Tell me its IC50 on PSMA (Homo sapiens, UniProt Q04609): N#C[C@@H]1CC(F)(F)CN1C(=O)CNC(=O)c1ccnc2ccc(OCc3cn(CC(=O)N[C@@H](CCCCNC(=O)CN4CCN(CC(=O)[O-])CCN(CC(=O)[O-])CCN(CC(=O)[O-])CC4)C(=O)NCC(=O)NC[C@H]4CC[C@H](C(=O)N[C@@H](Cc5c6ccccc6cc6ccccc56)C(=O)NCCCC[C@H](NC(=O)N[C@@H](CCC(=O)O)C(=O)O)C(=O)O)CC4)nn3)cc12.[Ga+3]
29.4 nM

Tell me its IC50 on PSMA (Homo sapiens, UniProt Q04609): N#C[C@@H]1CC(F)(F)CN1C(=O)CNC(=O)c1ccnc2ccc(-c3cn(CC(=O)N[C@@H](CCCCNC(=O)CN4CCN(CC(=O)[O-])CCN(CC(=O)[O-])CCN(CC(=O)[O-])CC4)C(=O)NCC(=O)NC[C@H]4CC[C@H](C(=O)N[C@@H](Cc5c6ccccc6cc6ccccc56)C(=O)NCCCC[C@H](NC(=O)N[C@@H](CCC(=O)O)C(=O)O)C(=O)O)CC4)nn3)cc12.[Ga+3]
71.6 nM

Tell me its IC50 on PSMA (Homo sapiens, UniProt Q04609): N#C[C@@H]1CC(F)(F)CN1C(=O)CNC(=O)c1ccnc2ccc(OCCCc3cn(CC(=O)N[C@@H](CCCCNC(=O)CN4CCN(CC(=O)[O-])CCN(CC(=O)[O-])CCN(CC(=O)[O-])CC4)C(=O)NCC(=O)NC[C@H]4CC[C@H](C(=O)N[C@@H](Cc5c6ccccc6cc6ccccc56)C(=O)NCCCC[C@H](NC(=O)N[C@@H](CCC(=O)O)C(=O)O)C(=O)O)CC4)nn3)cc12.[Ga+3]
25.2 nM

Tell me its IC50 on PSMA (Homo sapiens, UniProt Q04609): N#C[C@@H]1CC(F)(F)CN1C(=O)CNC(=O)c1ccnc2ccc(OCCCN3CCN(C(=O)CN4CCN(CC(=O)[O-])CCN(CC(=O)[O-])CCN(CC(=O)[O-])CC4)CC3)cc12.[Ga+3] [Ga-FAPI-04, reference compound]
> 1000 nM

Tell me its IC50 on PSMA (Homo sapiens, UniProt Q04609): O=C([O-])CN1CCN(CC(=O)[O-])CCN(CC(=O)NC[C@H]2CC[C@H](C(=O)N[C@@H](Cc3c4ccccc4cc4ccccc34)C(=O)NCCCC[C@H](NC(=O)N[C@@H](CCC(=O)O)C(=O)O)C(=O)O)CC2)CCN(CC(=O)[O-])CC1.[Ga+3] [Ga-HTK03041, reference compound]
0.76 nM

====

- Test system: FAP-expressing HEK293T:hFAP tumor xenografts
- measurement_notes: Ex vivo biodistribution in HEK293T:hFAP tumor-bearing mice
- stated_conditions: 1 h post injection, mean ± SD, n = 4
- Protocol: Biodistribution studies were also conducted at 1 h post injection with [^68Ga]Ga-AV01017, [^68Ga]Ga-AV01030, [^68Ga]Ga-AV01038, [^68Ga]Ga-HTK03041, and [^68Ga]Ga-FAPI-04 in HEK293T:hFAP tumor-bearing mice (Figure 6 and Table S5, Supplementary Materials). Tumor uptake values for [^68Ga]Ga-AV01017, [^68Ga]Ga-AV01030, [^68Ga]Ga-AV01038, [^68Ga]Ga-HTK03041, and [^68Ga]Ga-FAPI-04 were 2.99 ± 0.37, 3.69 ± 0.81, 3.64 ± 0.83, 0.62 ± 0.19, and 12.5 ± 2.00 %ID/g, respectively. […]
Provide the recorded Heart uptake for the entries that follow.
Write the figure, then the unit, nothing else.

Report measured Heart uptake; entry is N#C[C@@H]1CC(F)(F)CN1C(=O)CNC(=O)c1ccnc2ccc(OCc3cn(CC(=O)N[C@@H](CCCCNC(=O)CN4CCN(CC(=O)[O-])CCN(CC(=O)[O-])CCN(CC(=O)[O-])CC4)C(=O)NCC(=O)NC[C@H]4CC[C@H](C(=O)N[C@@H](Cc5c6ccccc6cc6ccccc56)C(=O)NCCCC[C@H](NC(=O)N[C@@H](CCC(=O)O)C(=O)O)C(=O)O)CC4)nn3)cc12.[68Ga+3] [[^68Ga]Ga-AV01038]
2.69 ± 0.22 %ID/g

Report measured Heart uptake; entry is N#C[C@@H]1CC(F)(F)CN1C(=O)CNC(=O)c1ccnc2ccc(OCCCN3CCN(C(=O)CN4CCN(CC(=O)[O-])CCN(CC(=O)[O-])CCN(CC(=O)[O-])CC4)CC3)cc12.[68Ga+3] [[^68Ga]Ga-FAPI-04, reference compound]
0.34 ± 0.04 %ID/g

Report measured Heart uptake; entry is O=C([O-])CN1CCN(CC(=O)[O-])CCN(CC(=O)NC[C@H]2CC[C@H](C(=O)N[C@@H](Cc3c4ccccc4cc4ccccc34)C(=O)NCCCC[C@H](NC(=O)N[C@@H](CCC(=O)O)C(=O)O)C(=O)O)CC2)CCN(CC(=O)[O-])CC1.[68Ga+3] [[^68Ga]Ga-HTK03041, reference compound]
0.98 ± 0.07 %ID/g

====

- Tested on: PSMA-expressing LNCaP tumor xenografts
- measurement_notes: Ex vivo biodistribution in LNCaP tumor-bearing mice
- stated_conditions: LNCaP tumor-bearing mice, 1 h post injection, mean ± SD, n = 4
measurement_kind: Tumor/bone uptake ratio
Answer with the value's number alone.

Report measured Tumor/bone uptake ratio; entry is N#C[C@@H]1CC(F)(F)CN1C(=O)CNC(=O)c1ccnc2ccc(-c3cn(CC(=O)N[C@@H](CCCCNC(=O)CN4CCN(CC(=O)[O-])CCN(CC(=O)[O-])CCN(CC(=O)[O-])CC4)C(=O)NCC(=O)NC[C@H]4CC[C@H](C(=O)N[C@@H](Cc5c6ccccc6cc6ccccc56)C(=O)NCCCC[C@H](NC(=O)N[C@@H](CCC(=O)O)C(=O)O)C(=O)O)CC4)nn3)cc12.[68Ga+3] [[^68Ga]Ga-AV01030]
1.17

====

- Test system: FAP-expressing HEK293T:hFAP tumor xenografts
- measurement_notes: Ex vivo biodistribution in HEK293T:hFAP tumor-bearing mice
- stated_conditions: 1 h post injection, mean ± SD, n = 4
measurement_kind: Lungs uptake

Report measured Lungs uptake; entry is N#C[C@@H]1CC(F)(F)CN1C(=O)CNC(=O)c1ccnc2ccc(OCCCN3CCN(C(=O)CN4CCN(CC(=O)[O-])CCN(CC(=O)[O-])CCN(CC(=O)[O-])CC4)CC3)cc12.[68Ga+3] [[^68Ga]Ga-FAPI-04, reference compound]
0.74 ± 0.11 %ID/g

Report measured Lungs uptake; entry is N#C[C@@H]1CC(F)(F)CN1C(=O)CNC(=O)c1ccnc2ccc(OCCCc3cn(CC(=O)N[C@@H](CCCCNC(=O)CN4CCN(CC(=O)[O-])CCN(CC(=O)[O-])CCN(CC(=O)[O-])CC4)C(=O)NCC(=O)NC[C@H]4CC[C@H](C(=O)N[C@@H](Cc5c6ccccc6cc6ccccc56)C(=O)NCCCC[C@H](NC(=O)N[C@@H](CCC(=O)O)C(=O)O)C(=O)O)CC4)nn3)cc12.[68Ga+3] [[^68Ga]Ga-AV01017]
5.50 ± 1.26 %ID/g

====

- system_name: recombinant human FAP (Homo sapiens, UniProt Q12884)
- Sequence (Q12884 whole entry): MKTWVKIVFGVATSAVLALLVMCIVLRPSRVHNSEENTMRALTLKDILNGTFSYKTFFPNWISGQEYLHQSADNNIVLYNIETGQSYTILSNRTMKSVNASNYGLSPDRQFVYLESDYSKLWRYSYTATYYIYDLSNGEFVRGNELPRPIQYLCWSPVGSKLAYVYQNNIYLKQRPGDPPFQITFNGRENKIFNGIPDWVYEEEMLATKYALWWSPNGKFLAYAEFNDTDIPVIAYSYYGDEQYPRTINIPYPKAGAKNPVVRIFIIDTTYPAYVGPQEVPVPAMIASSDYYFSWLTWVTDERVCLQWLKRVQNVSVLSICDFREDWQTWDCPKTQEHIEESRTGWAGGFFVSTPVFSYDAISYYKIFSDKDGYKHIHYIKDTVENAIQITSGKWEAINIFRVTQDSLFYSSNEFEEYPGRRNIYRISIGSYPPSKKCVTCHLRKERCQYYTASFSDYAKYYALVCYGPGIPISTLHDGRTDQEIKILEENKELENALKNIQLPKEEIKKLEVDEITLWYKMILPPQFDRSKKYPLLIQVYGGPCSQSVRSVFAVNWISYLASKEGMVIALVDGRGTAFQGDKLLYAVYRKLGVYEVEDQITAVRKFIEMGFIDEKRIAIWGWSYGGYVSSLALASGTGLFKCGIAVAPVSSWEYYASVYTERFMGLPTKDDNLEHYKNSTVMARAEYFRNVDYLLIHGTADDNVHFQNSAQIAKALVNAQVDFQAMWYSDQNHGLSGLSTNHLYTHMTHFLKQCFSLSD
- measurement_notes: In vitro FAP fluorescence enzyme-inhibition assay (Suc-Gly-Pro-AMC substrate)
- stated_conditions: n = 3
Provide the recorded IC50 for the entries that follow.
// units = nM; emit number, no label

Report measured IC50; entry is N#C[C@@H]1CC(F)(F)CN1C(=O)CNC(=O)c1ccnc2ccc(-c3cn(CC(=O)N[C@@H](CCCCNC(=O)CN4CCN(CC(=O)[O-])CCN(CC(=O)[O-])CCN(CC(=O)[O-])CC4)C(=O)NCC(=O)NC[C@H]4CC[C@H](C(=O)N[C@@H](Cc5c6ccccc6cc6ccccc56)C(=O)NCCCC[C@H](NC(=O)N[C@@H](CCC(=O)O)C(=O)O)C(=O)O)CC4)nn3)cc12.[Ga+3]
2.74

Report measured IC50; entry is N#C[C@@H]1CC(F)(F)CN1C(=O)CNC(=O)c1ccnc2ccc(OCCCc3cn(CC(=O)N[C@@H](CCCCNC(=O)CN4CCN(CC(=O)[O-])CCN(CC(=O)[O-])CCN(CC(=O)[O-])CC4)C(=O)NCC(=O)NC[C@H]4CC[C@H](C(=O)N[C@@H](Cc5c6ccccc6cc6ccccc56)C(=O)NCCCC[C@H](NC(=O)N[C@@H](CCC(=O)O)C(=O)O)C(=O)O)CC4)nn3)cc12.[Ga+3]
1.25

Report measured IC50; entry is O=C([O-])CN1CCN(CC(=O)[O-])CCN(CC(=O)NC[C@H]2CC[C@H](C(=O)N[C@@H](Cc3c4ccccc4cc4ccccc34)C(=O)NCCCC[C@H](NC(=O)N[C@@H](CCC(=O)O)C(=O)O)C(=O)O)CC2)CCN(CC(=O)[O-])CC1.[Ga+3] [Ga-HTK03041, reference compound]
2010

Report measured IC50; entry is N#C[C@@H]1CC(F)(F)CN1C(=O)CNC(=O)c1ccnc2ccc(OCc3cn(CC(=O)N[C@@H](CCCCNC(=O)CN4CCN(CC(=O)[O-])CCN(CC(=O)[O-])CCN(CC(=O)[O-])CC4)C(=O)NCC(=O)NC[C@H]4CC[C@H](C(=O)N[C@@H](Cc5c6ccccc6cc6ccccc56)C(=O)NCCCC[C@H](NC(=O)N[C@@H](CCC(=O)O)C(=O)O)C(=O)O)CC4)nn3)cc12.[Ga+3]
2.31
